Sourced from patent US8575188B2

System: Messa ovarian carcinoma cell line
test summary: Efflux pump drug resistance, antiproliferation assay, parent line
Type: cell-based
experimental context: Homo sapiens, MES-SA, 72 h, air, 3 days; read-out: Air 3d MESSA prol. IC50
pIC50: −log10 of the molar value.

# structure as smiles, pIC50
rows = [
    ("CCc1c2c(nc3ccccc13)-c1c([N+](=O)[O-])c3c(c(=O)n1C2)COC(=O)[C@]3(O)CC", 5.28),
    ("CC[C@@]1(O)C(=O)OCc2c1c(N)c1n(c2=O)Cc2cc3c(N)cccc3nc2-1", 7.28),
    ("CC[C@@]1(O)C(=O)OCc2c1c([N+](=O)[O-])c1n(c2=O)Cc2c-1nc1ccccc1c2/C=N/OC(C)(C)C", 5.57),
    ("CCc1c2c(nc3ccccc13)-c1c(N)c3c(c(=O)n1C2)COC(=O)[C@]3(O)CC", 8.37),
    ("CCc1c2c(nc3ccccc13)-c1c(NC=O)c3c(c(=O)n1C2)COC(=O)[C@]3(O)CC", 7.09),
    ("CC[C@@]1(O)C(=O)OCc2c1c(N)c1n(c2=O)Cc2c-1nc1ccccc1c2C", 8.07),
    ("CC[C@@]1(O)C(=O)OCc2c1c(N)c1n(c2=O)Cc2cc3ccccc3nc2-1", 7.24),
    ("CC[C@@]1(O)C(=O)OCc2c1c([N+](=O)[O-])c1n(c2=O)Cc2c-1nc1ccccc1c2CO", 4.82),
    ("CC[C@@]1(O)C(=O)OCc2c1c(N)c1n(c2=O)Cc2c-1nc1ccccc1c2/C=N/OC(C)(C)C", 8.05),
]
